Please provide measured pIC50 for the entries that follow.
target: KDR (Homo sapiens (Human), UniProt P35968); experiment: KDR autophosphorylation ELISA in HUVEC cells; conditions: cellular, VEGF165 stimulated
Sequence (P35968 20-1356): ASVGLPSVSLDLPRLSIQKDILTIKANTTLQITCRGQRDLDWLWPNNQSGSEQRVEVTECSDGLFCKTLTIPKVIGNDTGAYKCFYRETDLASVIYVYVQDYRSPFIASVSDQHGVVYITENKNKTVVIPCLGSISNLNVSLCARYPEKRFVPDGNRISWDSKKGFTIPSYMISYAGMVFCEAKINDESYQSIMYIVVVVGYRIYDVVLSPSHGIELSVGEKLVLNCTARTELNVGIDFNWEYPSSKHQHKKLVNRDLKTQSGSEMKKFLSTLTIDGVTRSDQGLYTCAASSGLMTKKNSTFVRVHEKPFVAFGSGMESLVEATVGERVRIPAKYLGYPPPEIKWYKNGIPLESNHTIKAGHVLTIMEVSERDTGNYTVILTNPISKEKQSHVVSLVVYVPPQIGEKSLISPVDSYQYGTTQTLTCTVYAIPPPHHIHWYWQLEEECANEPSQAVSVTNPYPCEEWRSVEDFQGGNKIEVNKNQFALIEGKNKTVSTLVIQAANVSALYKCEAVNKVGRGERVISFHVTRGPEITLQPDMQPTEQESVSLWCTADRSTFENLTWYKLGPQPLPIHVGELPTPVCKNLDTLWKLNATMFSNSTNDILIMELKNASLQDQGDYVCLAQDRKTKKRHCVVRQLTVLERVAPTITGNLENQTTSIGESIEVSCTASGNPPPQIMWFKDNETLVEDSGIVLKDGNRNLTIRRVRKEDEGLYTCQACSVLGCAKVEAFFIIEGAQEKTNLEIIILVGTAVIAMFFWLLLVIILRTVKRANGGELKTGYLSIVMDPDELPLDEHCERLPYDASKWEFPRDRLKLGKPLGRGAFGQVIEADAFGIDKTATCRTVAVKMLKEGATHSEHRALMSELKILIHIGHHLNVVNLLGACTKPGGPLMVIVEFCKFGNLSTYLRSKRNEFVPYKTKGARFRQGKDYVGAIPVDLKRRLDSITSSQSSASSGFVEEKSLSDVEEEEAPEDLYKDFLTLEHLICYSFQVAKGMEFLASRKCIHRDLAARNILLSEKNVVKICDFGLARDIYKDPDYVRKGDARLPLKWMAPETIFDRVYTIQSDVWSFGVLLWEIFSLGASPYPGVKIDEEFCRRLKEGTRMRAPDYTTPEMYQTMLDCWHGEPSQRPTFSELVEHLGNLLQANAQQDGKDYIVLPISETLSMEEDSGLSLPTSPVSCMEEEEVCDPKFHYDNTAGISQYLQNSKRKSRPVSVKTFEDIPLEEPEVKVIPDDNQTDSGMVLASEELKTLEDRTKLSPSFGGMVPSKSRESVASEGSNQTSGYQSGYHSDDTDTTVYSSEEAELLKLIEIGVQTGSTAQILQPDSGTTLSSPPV
pIC50: −log10 of the molar value.

Entry CNC(=O)c1cc2c(Oc3ccc(NC(=O)C4(C(=O)Nc5c(C)cc(F)cc5C)CC4)cc3F)ccnc2cc1OC : reported pIC50 = ?
6.52 to 7.00

Reported pIC50, compound COc1cc2nccc(Oc3ccc(NC(=O)C4(C(=O)Nc5ccc(F)cc5)CC4)cc3)c2cc1-c1cn(C)cn1 : ____
≥ 8.00

What does the data say about its pIC50? Entry: CNC(=O)c1cc2c(Oc3ccc(NC(=O)C4(C(=O)Nc5ccc(F)cc5)CC4)cc3)ccnc2cc1OCC(C)O (stereo not shown)
≥ 8.00

Data request, read-out pIC50, for COc1cc2nccc(Oc3ccc(NC(=O)C4(C(=O)Nc5ccc(F)cc5)CC4)cc3)c2cc1C(=O)N1CCC1
< 6.52
